assay: Hemolytic activity in human RBC at 16 ug/ml incubated for 30 mins; format: ADME, cell-based, Erythrocyte; settings: red blood cells (erythrocytes), at 16 µg/mL, read-out: Activity
Measured Property: hemolysis at 0.5 h, 16 ug/ml (%)
Give bare numbers, in %.

Exam item: Which hemolysis at 0.5 h, 16 ug/ml is reported for this molecule? OC(Cn1cncn1)(Cn1cncn1)c1ccc(F)cc1F [FLUCONAZOLE]
Marked response: 53

---

assay: Hemolytic activity in human RBC at 2 ug/ml incubated for 30 mins; assay type: ADME, cell-based, Erythrocyte; settings: red blood cells (erythrocytes), at 2 µg/mL, read-out: Activity
*1 amine or outer side, *2 acyl side, *3 side chain or, on linkers, in order; H or OH if unused. Where a SMILES comes first, the peptide text is derived from it. [ ]: non-standard residue; d: D form. X1 = CC[C@@H](C)[C@@H](O[*:1])C(=O)[*:2]; NMeVal(β-OH) = CN[C@H](C(=O)O)C(C)(C)O; NMeF = CN[C@@H](Cc1ccccc1)C(=O)O; aIle = CC[C@@H](C)[C@H](N)C(=O)O; NMeV = CN[C@H](C(=O)O)C(C)C
Task for the reader: assign each of the following compounds its reported hemolysis at 0.5 h, 2 ug/ml.
Answers are plain numbers, in %.

OC(Cn1cncn1)(Cn1cncn1)c1ccc(F)cc1F [FLUCONAZOLE]: 29

Consider now this further compound.
Exam item: Give the measured hemolysis at 0.5 h, 2 ug/ml of CC[C@@H](C)[C@@H]1NC(=O)[C@@H]2CCCN2C(=O)[C@H](Cc2ccccc2)N(C)C(=O)[C@H](Cc2ccccc2)NC(=O)[C@H](C(C)C)N(C)C(=O)[C@@H]([C@H](C)CC)OC(=O)[C@H](C(C)(C)O)N(C)C(=O)[C@H](CC(C)C)NC(=O)[C@H](C(C)C)N(C)C1=O [AUREOBASIDIN A] (cyclo(F[NMeF]P[aIle][NMeV]L[NMeVal(β-OH)][X1][NMeV])) .
Marked response: 0.65

---

Field: viability at 24 h, 0.25 times MIC. Provide a value for each of the compounds that follow.
test: Cytotoxicity against human HEK293 cells assessed as cell survival at 0.25 times MIC incubated for 24 hrs by MTT assay; format: cell-based; conditions: read-out: Activity
*1 amine or outer side, *2 acyl side, *3 side chain or, on linkers, in order; H or OH if unused. Where a SMILES comes first, the peptide text is derived from it. [ ]: non-standard residue; d: D form. X1 = CC[C@@H](C)[C@@H](O[*:1])C(=O)[*:2]; NMeVal(β-OH) = CN[C@H](C(=O)O)C(C)(C)O; NMeF = CN[C@@H](Cc1ccccc1)C(=O)O; aIle = CC[C@@H](C)[C@H](N)C(=O)O; NMeV = CN[C@H](C(=O)O)C(C)C
Numbers only, in %.

OC(Cn1cncn1)(Cn1cncn1)c1ccc(F)cc1F [FLUCONAZOLE]: 99.9

With those in mind, consider the next compound.
Exam item: So what does the record say about viability at 24 h, 0.25 times MIC for CC[C@@H](C)[C@@H]1NC(=O)[C@@H]2CCCN2C(=O)[C@H](Cc2ccccc2)N(C)C(=O)[C@H](Cc2ccccc2)NC(=O)[C@H](C(C)C)N(C)C(=O)[C@@H]([C@H](C)CC)OC(=O)[C@H](C(C)(C)O)N(C)C(=O)[C@H](CC(C)C)NC(=O)[C@H](C(C)C)N(C)C1=O [AUREOBASIDIN A] (cyclo(F[NMeF]P[aIle][NMeV]L[NMeVal(β-OH)][X1][NMeV])) ?
Marked response: 98
